assay: Photochromic properties of polymer (2 mm thick) containing the chromene compound, xenon lamp irradiation 120 seconds; assay type: physicochemical; details: after 120 seconds irradiation
Decision: Color fading rate t1/2: time until absorbancy decreases to one-half of [ε(120)-ε(0)] >= 1 min yields 1, all other cases yield -1.

> print(dat)
                                   molecule  assigned.class
1  C1=CC(c2ccco2)(c2csc3ccccc23)Oc2ccc3ccccc3c21 (centres unmarked)              -1
2  N#Cc1cc(Cl)c(C2(c3ccoc3)C=Cc3c(ccc4ccccc34)O2)s1 (centres unmarked)               1
3  CC(=O)Oc1ccc2c3c(ccc2c1)OC(c1ccc(C)s1)(c1cccc2ccccc12)C=C3 (centres unmarked)               1
4  COc1cc2c(c3ccccc13)C=CC(c1cc(Cl)c3ccccc3c1)(c1cc3ccccc3s1)O2 (centres unmarked)               1
5  C1=CC(c2ccccc2)(c2cccs2)Oc2ccc3ccccc3c21 (centres unmarked) [D, reference compound]              -1
6  Fc1c(C2(c3ccsc3)C=Cc3c(ccc4ccccc34)O2)ccc2ccccc12 (centres unmarked)               1
7  Fc1sccc1C1(c2ccc3ccccc3c2)C=Cc2c(ccc3ccccc23)O1 (centres unmarked)               1
8  C1=CC(c2ncco2)(c2csc3ccccc23)Oc2ccc3cc(Cc4ccccc4)ccc3c21 (centres unmarked)               1

Recorded values, source patent US5808100A.
